Data provenance is ChEMBL document CHEMBL4627344.

Task for the reader: assign each of the following compounds its reported inhibition of growth at 10 µM.
tested on: OVCAR-8; experiment: Antiproliferative activity against human OVCAR8 cells assessed as inhibition of cell growth at 10 uM measured after 48 hrs by SRB assay relative to control; assay type: functional; conditions: OVCAR-8, 48 h, read-out: GI
Expressed in %, but write only the number.

Task: Report inhibition of growth at 10 µM for COc1ccc2nc3c(cc2c1)C(=O)CC(c1ccccc1)C3 (stereo not given) tested on OVCAR-8.
Result: 61

Task: Entry O=C1CC(c2ccccc2)Cc2nc3c(Br)cc(Br)cc3cc21 (stereo not given) , system OVCAR-8: what inhibition of growth at 10 µM was measured?
Result: 96

Task: What inhibition of growth at 10 µM appears in the records for this compound with OVCAR-8? O=C1CC(c2ccccc2)Cc2nc3ccc(Br)cc3cc21 (stereo not given)
Result: 75.9

Task: Form entry - test system: OVCAR-8; read-out: inhibition of growth at 10 µM; compound: O=C1CC(c2ccccc2)Cc2nc3ccc(Cl)cc3cc21 (stereo not given)
Result: 77.6

Task: Missing value: inhibition of growth at 10 µM, OVCAR-8, entry COc1ccc2nc3c(cc2c1)C(=O)CC(C(F)(F)F)C3 (stereo not given) . Fill in?
Result: 60

###

system: Hs-578T; assay: Antiproliferative activity against human Hs 578T cells assessed as inhibition of cell growth measured after 48 hrs by SRB assay; format: functional
Record form. Attribute: GI50. Fill in for each entry.
# value in µM; strip the unit string

Task: For the record COc1ccc2nc3c(cc2c1)C(=O)CC(c1ccccc1)C3 (stereo not given) , what value of GI50 is listed for Hs-578T?
Result: 1

Task: What is its GI50 for Hs-578T? Entry: O=C1CC(c2ccccc2)Cc2nc3ccc(Br)cc3cc21 (stereo not given)
Result: 0.411

Task: GET /values?readout=GI50&system=Hs-578T&item= O=C1CC(c2ccccc2)Cc2nc3ccc(Cl)cc3cc21 (stereo not given)
Result: 0.306

Task: Give Hs-578T GI50 for O=C1CC(c2ccccc2)Cc2nc3c(Br)cc(Br)cc3cc21 (stereo not given)
Result: 0.191

Task: Kindly state the measured GI50 obtained for COc1ccc2nc3c(cc2c1)C(=O)CC(C(F)(F)F)C3 (stereo not given) with Hs-578T.
Result: 3.35

###

tested on: UACC-62; assay: Antiproliferative activity against human UACC62 cells assessed as inhibition of cell growth measured after 48 hrs by SRB assay; format: functional; settings: UACC-62, 48 h
measured.metric: GI50 (nM)
Expressed in nM, but write only the number.

Task: Fill in the blank: the reported GI50 of O=C1CC(c2ccccc2)Cc2nc3c(Br)cc(Br)cc3cc21 (stereo not given) is ____.
Result: 338

Task: Look at this compound and give its reported GI50. COc1ccc2nc3c(cc2c1)C(=O)CC(c1ccccc1)C3 (stereo not given)
Result: 728

Task: What GI50 value was documented for this compound, O=C1CC(c2ccccc2)Cc2nc3ccc(Cl)cc3cc21 (stereo not given) ?
Result: 333

Task: Returns the measured GI50 for the input compound. Input: COc1ccc2nc3c(cc2c1)C(=O)CC(C(F)(F)F)C3 (stereo not given)
Result: 697

Task: For the compound shown here, O=C1CC(c2ccccc2)Cc2nc3ccc(Br)cc3cc21 (stereo not given) , give the reported GI50.
Result: 444
